MEASURED_TARGET: human CXCR4 (human, UniProt P61073 1-352)
Sequence (P61073 whole entry): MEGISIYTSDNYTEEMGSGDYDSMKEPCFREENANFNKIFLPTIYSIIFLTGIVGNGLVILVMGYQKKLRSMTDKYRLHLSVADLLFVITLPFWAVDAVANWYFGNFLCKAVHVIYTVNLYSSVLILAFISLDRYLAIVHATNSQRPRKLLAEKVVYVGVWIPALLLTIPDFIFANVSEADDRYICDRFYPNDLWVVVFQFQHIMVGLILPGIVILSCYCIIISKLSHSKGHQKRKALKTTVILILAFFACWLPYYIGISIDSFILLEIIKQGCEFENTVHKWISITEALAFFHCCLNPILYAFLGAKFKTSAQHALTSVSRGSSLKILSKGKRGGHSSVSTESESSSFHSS
METHOD_DESCRIPTION: cell-based or functional assay
Bridges are numbered along the chain shown (N, C = ends). [ ]: non-standard residue; d: D form. Phe(4-F) = N[C@@H](Cc1ccc(F)cc1)C(=O)O; 2Nal = N[C@@H](Cc1ccc2ccccc2c1)C(=O)O; Cit = NC(=O)NCCC[C@H](N)C(=O)O; NMeK = CN[C@@H](CCCCN)C(=O)O
TEST_READOUT: IC50 (nM) Ca2+ assay (method 2)

# BINDER, TEST_READOUT, MEASUREMENT
data = [
    ("cyclo(YR[Cit]CRG[dP]YR[2Nal]CYQK[dP]P) (disulfide 4-11; SMILES N=C(N)NCCC[C@@H]1NC(=O)[C@@H]2CSSC[C@H](NC(=O)[C@H](Cc3ccc4ccccc4c3)NC(=O)[C@H](CCCNC(=N)N)NC(=O)[C@H](Cc3ccc(O)cc3)NC(=O)[C@H]3CCCN3C(=O)CNC1=O)C(=O)N[C@@H](Cc1ccc(O)cc1)C(=O)N[C@@H](CCC(N)=O)C(=O)N[C@@H](CCCCN)C(=O)N1CCC[C@@H]1C(=O)N1CCC[C@H]1C(=O)N[C@@H](Cc1ccc(O)cc1)C(=O)N[C@@H](CCCNC(=N)N)C(=O)N[C@@H](CCCNC(N)=O)C(=O)N2) [Example 54]", "IC50 (nM) Ca2+ assay (method 2)", 6.9),
    ("cyclo(YR[Phe(4-F)]CRG[dP]RR[2Nal]CYQK[dP]P) (disulfide 4-11; SMILES N=C(N)NCCC[C@@H]1NC(=O)[C@@H]2CSSC[C@H](NC(=O)[C@H](Cc3ccc4ccccc4c3)NC(=O)[C@H](CCCNC(=N)N)NC(=O)[C@H](CCCNC(=N)N)NC(=O)[C@H]3CCCN3C(=O)CNC1=O)C(=O)N[C@@H](Cc1ccc(O)cc1)C(=O)N[C@@H](CCC(N)=O)C(=O)N[C@@H](CCCCN)C(=O)N1CCC[C@@H]1C(=O)N1CCC[C@H]1C(=O)N[C@@H](Cc1ccc(O)cc1)C(=O)N[C@@H](CCCNC(=N)N)C(=O)N[C@@H](Cc1ccc(F)cc1)C(=O)N2) [Example 99]", "IC50 (nM) Ca2+ assay (method 2)", 4.2),
    ("cyclo(YR[Cit]CRG[dP]RR[2Nal]CY[Cit][NMeK][dP]P) (disulfide 4-11; SMILES CN1C(=O)[C@H](CCCNC(N)=O)NC(=O)[C@H](Cc2ccc(O)cc2)NC(=O)[C@@H]2CSSC[C@H](NC(=O)[C@H](CCCNC(N)=O)NC(=O)[C@H](CCCNC(=N)N)NC(=O)[C@H](Cc3ccc(O)cc3)NC(=O)[C@@H]3CCCN3C(=O)[C@H]3CCCN3C(=O)[C@@H]1CCCCN)C(=O)N[C@@H](CCCNC(=N)N)C(=O)NCC(=O)N1CCC[C@@H]1C(=O)N[C@@H](CCCNC(=N)N)C(=O)N[C@@H](CCCNC(=N)N)C(=O)N[C@@H](Cc1ccc3ccccc3c1)C(=O)N2) [Example 127]", "IC50 (nM) Ca2+ assay (method 2)", 52.2),
    ("cyclo(YR[Cit]CRG[dP]RR[2Nal]CYYK[dP]P) (disulfide 4-11; SMILES N=C(N)NCCC[C@@H]1NC(=O)[C@@H]2CSSC[C@H](NC(=O)[C@H](Cc3ccc4ccccc4c3)NC(=O)[C@H](CCCNC(=N)N)NC(=O)[C@H](CCCNC(=N)N)NC(=O)[C@H]3CCCN3C(=O)CNC1=O)C(=O)N[C@@H](Cc1ccc(O)cc1)C(=O)N[C@@H](Cc1ccc(O)cc1)C(=O)N[C@@H](CCCCN)C(=O)N1CCC[C@@H]1C(=O)N1CCC[C@H]1C(=O)N[C@@H](Cc1ccc(O)cc1)C(=O)N[C@@H](CCCNC(=N)N)C(=O)N[C@@H](CCCNC(N)=O)C(=O)N2) [Example 59]", "IC50 (nM) Ca2+ assay (method 2)", 7.8),
]
